Molecular target: T1, GvpC C-terminal fragment Cterm (Halobacterium salinarum, UniProt P24574 329-382)
T1 construct: GvpC of Halobacterium salinarum, aa 329-382, the globular C-terminal domain with a zinc-finger motif; GFP fragment at the N- or C-terminus; source: Hfx. volcanii WR340 transformant, split-GFP fusion in living cells
T1 sequence (looked up): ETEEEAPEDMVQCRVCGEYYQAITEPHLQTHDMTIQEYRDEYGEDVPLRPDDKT
Test: split reporter (BiFC, NanoBiT); split-GFP (NGFP and CGFP of salt-stable mGFP2) in Hfx. volcanii transformants, 24 h 37 °C then 24 h 30 °C; relative fluorescence (rf) against the wild type; the highest of eight tag combinations is given
Details: partners not purified
Quantity name: relative fluorescence (rf) (LAU/mm^2)

[[record]]
binder = "GvpH fused to NGFP or CGFP (natural protein, Halobacterium salinarum, UniProt P24372 1-182, looked up, accessory gas vesicle protein GvpH of Halobacterium salinarum; construct of earlier work; source: Hfx. volcanii WR340 transformant, split-GFP fusion in living cells) MVPDENDDASDDQSSQLSGLLDQLHTLVEVLADIEEEGGHRHESGRIDRGNARIDYDYDVSIGLGRADGSSYDEEPSSNRSRSEQRSGQQRTTEDSIHVETRGGTSGDELVVVADLPGVTDDDVDVALDTDEQALTLRVDDDVVERVVLDRPDVAITDMTLRNQVLEIRLARTSDTDGGEST"
numeric_result = 42.6

[[record]]
binder = "GvpC N-terminal fragment Nterm (domain or fragment, Halobacterium salinarum, UniProt P24574 10-130, looked up, GvpC of Halobacterium salinarum, amino acids 10-130, the first three alpha-helical repeats; GFP fragment at the N- or C-terminus; source: Hfx. volcanii WR340 transformant, split-GFP fusion in living cells) MSTARDKFAESQQEFESYADEFAADITAKQDDVSDLVDAITDFQAEMTNTTDAFHTYGDEFAAEVDHLRADIDAQRDVIREMQDAFEAYADIFATDIADKQDIGNLLAAIEALRTEMNSTH"
numeric_result = 10.1

